- procedure.details: self-splicing fitness, log relative to wild type (ln ratio); higher = more splicing; Tetrahymena group I intron in knt gene, E. coli kanamycin selection, DiMSum; sequences stand for … in CUCUCU…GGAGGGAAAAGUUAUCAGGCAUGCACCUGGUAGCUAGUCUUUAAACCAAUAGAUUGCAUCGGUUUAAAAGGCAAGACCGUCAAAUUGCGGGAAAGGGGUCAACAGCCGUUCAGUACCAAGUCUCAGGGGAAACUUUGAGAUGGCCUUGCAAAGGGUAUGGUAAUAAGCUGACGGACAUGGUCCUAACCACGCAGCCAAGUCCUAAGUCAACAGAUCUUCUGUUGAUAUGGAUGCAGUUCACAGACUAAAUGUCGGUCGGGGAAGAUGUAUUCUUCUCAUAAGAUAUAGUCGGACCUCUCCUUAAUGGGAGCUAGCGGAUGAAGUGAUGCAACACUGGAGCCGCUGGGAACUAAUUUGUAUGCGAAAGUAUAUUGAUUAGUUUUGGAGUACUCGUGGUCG;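 also: selection with 25 µg/mL kanamycin versus none on LB agar overnight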
- condition.label: 37 °C
# label = yes if self-splicing fitness (ln) >= -2 else no

Example entries begin here.
{"residue.sequence": "CUGCAGCAAUAUUACGUGAC", "assigned.category": "yes"}
{"residue.sequence": "GAGUAGCAAUAUUACGUUGC", "assigned.category": "yes"}
{"residue.sequence": "CCUGAGCAAUAUUACGGAUA", "assigned.category": "yes"}
{"residue.sequence": "UUGGAGCAAUAUUACGUUCG", "assigned.category": "yes"}
{"residue.sequence": "GGUUAGCAAUAUUACGAAAU", "assigned.category": "yes"}

Switching to the query record.
Problem: Reported self-splicing fitness (ln) reaches at least -2 for "GAGCAGCAAUAUUACGGGCC" ?
Solution: yes
